assay: Cytotoxicity in murine macrophage cells (resazurin); type: cell-based; conditions: mouse, Raw 264.7 macrophage cells, Raw 264.7 murine macrophage cells, triplicate
attribute measured: IC50 at 72 h (µg/mL)
# output: bare number, implied unit µg/mL

These solved cases illustrate the format of a correct answer.
CCC(C)C(=O)OC1C(OC(C)=O)C2(C)C(c3ccoc3)CC(=O)C2C2(C)OC3CC(=O)OC(C)(C)C(CC(=O)OC)C3(C)C12O (stereo not drawn)
60
COC(=O)CC1C(C)(C)OC(=O)C=C2OC3(C)C(C(OC(=O)C(C)C)C(OC(C)=O)C4(C)C(c5ccoc5)CC(=O)C34)C21C (stereo not drawn)
41.5

Next compound, IC50 at 72 h to be filled in.
**Q:** IC50 at 72 h lookup needed for CCC(C)C(=O)OC1C(OC(C)=O)C2(C)C(c3ccoc3)CC(=O)C2C2(C)OC3CC(=O)OC(C)(C)C(CC(=O)OC)C3(C)C12 (stereo not drawn) , thanks.
**A:** 30
